// data source = the supplement of paper PMC10567573

B1: ZBTB22 (parent)
chain: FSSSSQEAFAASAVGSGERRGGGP

Variants of: B1
Assay: protein stability index of a GFP-peptide fusion (GPS, HEK-293T) (PSI 1-6); higher = more stable;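 note: lentivirally expressed fusions sorted by FACS into six bins by GFP to DsRed ratio, PSI derived from sequencing read proportions per bin multiplied by bin number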
Settings: c terminus: a fixed tail appended
Entries are grouped by protein stability index into these classes: zone 1: < 3; zone 2: ≥ 3 and < 4; zone 3: ≥ 4

Consider FSSSSQEAFHASAVGSGERRGGGP . To which protein stability index class does it belong?
zone 2

FSSSSQEAFAASSVGSGERRGGGP ?
zone 2

FSSSSQEAFAASAVGSGERRGRGP ?
zone 2

FSSYSQEAFAASAVGSGERRGGGP ?
zone 2

ASSSSQEAFAASAVGSGERRGGGP ?
zone 3

VSSSSQEAFAASAVGSGERRGGGP ?
zone 3

FSSSSQEAFAASAVGSGERRGGGG ?
zone 1

MSSSSQEAFAASAVGSGERRGGGP ?
zone 3

FSSSSQEAFAASAVGSEERRGGGP ?
zone 2

FSSSSQEAFAASAVGSGERYGGGP ?
zone 2

FSSSSQEAFAASAVGSGSRRGGGP ?
zone 1

FSSSSQEEFAASAVGSGERRGGGP ?
zone 3

FSSSSQEAFAASAVGSGERRKGGP ?
zone 1

FSSSSQEAFAASAVGSGERRGGAP ?
zone 2

FSSSSQEAFAASAVHSGERRGGGP ?
zone 2

FSSSSQEAFAASAAGSGERRGGGP ?
zone 2

NSSSSQEAFAASAVGSGERRGGGP ?
zone 3

FSSSSQEAFAASAVGSGERRQGGP ?
zone 2

FSSSSQEAFAASAVGSGERRGGGI ?
zone 1

FSSSMQEAFAASAVGSGERRGGGP ?
zone 1

FSSSSQQAFAASAVGSGERRGGGP ?
zone 2

FSSSSQEHFAASAVGSGERRGGGP ?
zone 2

FSSSSQEAFAASAVGSGERRMGGP ?
zone 2

FSSSSQEAFAASAVGSCERRGGGP ?
zone 3

FSSSSQEAFAASKVGSGERRGGGP ?
zone 2

FSSSSQEAFAASAVGSGNRRGGGP ?
zone 1

FSSSSQEAFAASAVGSGERCGGGP ?
zone 1

FSSSSQEAFAASAVGSGHRRGGGP ?
zone 2

FSSSSQEAFAASAVGSVERRGGGP ?
zone 2

FSSSSQCAFAASAVGSGERRGGGP ?
zone 1
